So I've got a bunch of molecules here, and I need their pEC50 values.
- Test system: HCV type 1b replicon in Huh-7 luc/neo (Huh-Luc) cells
- assayMethodText: HCV replicon assay (Huh-Luc luciferase)
- Assay type: cell-based
- testConditions: Hepatitis C virus, Huh-7, 72 h, three days incubation, luciferase activity, average where tested more than once, read-out: EC50 1b ET
Field pEC50 (float): negative decimal logarithm of the concentration in molar.

# input Requested read-out: pEC50. Entry: C[C@@H]1[C@H](n2cc(I)c(=O)[nH]c2=O)O[C@@](COP(=O)(N[C@@H](C)C(=O)OCc2ccccc2)Oc2ccccc2)(N=[N+]=[N-])[C@H]1O (stereo partly shown) [Compound I-25]
# output 4.24

# input And for CCC(NP(=O)(OC[C@@]1(N=[N+]=[N-])O[C@@H](n2ccc(=O)[nH]c2=O)[C@@H](C)[C@@H]1O)Oc1ccccc1)C(=O)OC (stereo partly shown) [Compound I-26] ?
# output 4.13

# input And for C[C@@H]1[C@H](n2ccc(=O)[nH]c2=O)O[C@@](COP(=O)(NC(C)(C)C(=O)OCc2ccccc2)Oc2ccccc2)(N=[N+]=[N-])[C@H]1O (stereo partly shown) [Compound I-12] ?
# output 4.86

# input And for CCCCOC(=O)C(C)(C)NP(=O)(OC[C@@]1(N=[N+]=[N-])O[C@@H](n2ccc(=O)[nH]c2=O)[C@@H](C)[C@@H]1O)Oc1ccccc1 (stereo partly shown) [Compound I-13] ?
# output 4.88

# input And for CC(C)OC(=O)C(C)NP(=O)(OC[C@@]1(N=[N+]=[N-])O[C@@H](n2ccc(=O)[nH]c2=O)[C@@H](C)[C@@H]1O)Oc1ccccc1 (stereo partly shown) [Compound I-14] ?
# output 4.83

# input And for COC(=O)C(C)NP(=O)(OC[C@@]1(N=[N+]=[N-])O[C@@H](n2ccc(=O)[nH]c2=O)[C@@H](C)[C@@H]1O)Oc1ccccc1 (stereo partly shown) [Compound I-18] ?
# output 4.57

# input And for CC(NP(=O)(OC[C@@]1(N=[N+]=[N-])O[C@@H](n2ccc(=O)[nH]c2=O)[C@@H](C)[C@@H]1O)Oc1ccccc1)C(=O)OC1CCCC1 (stereo partly shown) [Compound I-6] ?
# output 4.98

# input And for CCC(NP(=O)(OC[C@@]1(N=[N+]=[N-])O[C@@H](n2ccc(=O)[nH]c2=O)[C@@H](C)[C@@H]1O)Oc1ccccc1)C(=O)OCc1ccccc1 (stereo partly shown) [Compound I-21] ?
# output 4.54

# input And for CCCOC(=O)C(C)NP(=O)(OC[C@@]1(N=[N+]=[N-])O[C@@H](n2ccc(=O)[nH]c2=O)[C@@H](C)[C@@H]1O)Oc1ccccc1 (stereo partly shown) [Compound I-10] ?
# output 4.89

# input And for CCCCOC(=O)C(CC)NP(=O)(OC[C@@]1(N=[N+]=[N-])O[C@@H](n2ccc(=O)[nH]c2=O)[C@@H](C)[C@@H]1O)Oc1ccccc1 (stereo partly shown) [Compound I-20] ?
# output 4.55

# input And for CCCCOC(=O)C(C)NP(=O)(OC[C@@]1(N=[N+]=[N-])O[C@@H](n2ccc(=O)[nH]c2=O)[C@@H](C)[C@@H]1O)Oc1ccccc1 (stereo partly shown) [Compound I-4] ?
# output 5.03

# input And for CC(NP(=O)(OC[C@@]1(N=[N+]=[N-])O[C@@H](n2ccc(=O)[nH]c2=O)[C@@H](C)[C@@H]1O)Oc1ccccc1)C(=O)OC1CCCCC1 (stereo partly shown) [Compound I-7] ?
# output 4.95

# input And for CCCCCOC(=O)C(C)NP(=O)(OC[C@@]1(N=[N+]=[N-])O[C@@H](n2ccc(=O)[nH]c2=O)[C@@H](C)[C@@H]1O)Oc1ccccc1 (stereo partly shown) [Compound I-5] ?
# output 5.02

# input And for CC(NP(=O)(OC[C@@]1(N=[N+]=[N-])O[C@@H](n2ccc(=O)[nH]c2=O)[C@@H](C)[C@@H]1O)Oc1ccccc1)C(=O)OCc1ccccc1 (stereo partly shown) [Compound I-1] ?
# output 5.23

---

So I've got a bunch of compounds here, and I need their CC50 values.
- Tested on: Huh-7
- assayMethodText: Cytotoxicity CC50 in Huh-7
- Type: cell-based
- testConditions: Huh-7 cells

# input Requested read-out: CC50. Entry: CCOC(=O)C(C)NP(=O)(OCC1(N=[N+]=[N-])OC(n2ccc(=O)[nH]c2=O)C(C)C1O)Oc1cc(C)c(Cl)cc1C(C)C (mixture of isomers)
# output 55 µM

# input And for CCOC(=O)C(C)NP(=O)(OCC1(N=[N+]=[N-])OC(n2ccc(=O)[nH]c2=O)C(C)C1O)Oc1ccccc1 (mixture of isomers) ?
# output > 98.3 µM

# input And for CCCC(CCC)COC(=O)C(C)NP(=O)(OCC1(N=[N+]=[N-])OC(n2ccc(=O)[nH]c2=O)C(C)C1O)Oc1ccc(Cl)cc1 (mixture of isomers) ?
# output > 100 µM

---

So I've got a bunch of compounds here, and I need their pEC50 values.
- Tested on: HCV type 1b replicon in Huh-7 luc/neo (Huh-Luc) cells
- assayMethodText: HCV replicon assay (Huh-Luc luciferase)
- Format: cell-based
- testConditions: three days incubation, luciferase activity, average where tested more than once, read-out: EC50 1b ET
Field pEC50 (float): negative decimal logarithm of the concentration in molar.

# input Requested read-out: pEC50. Entry: CCOC(=O)C(C)NP(=O)(OCC1(N=[N+]=[N-])OC(n2ccc(=O)[nH]c2=O)C(C)C1O)Oc1cc(C)c(Cl)cc1C(C)C (mixture of isomers)
# output 4.42

# input And for `CCCC(CCC)COC(=O)[C@H](C)NP(=O)(O)OC[C@@]1(N=[N+]=[N-])O[C@@H](n2ccc(=O)[nH]c2=O)[C@@H](C)[C@@H]1O` ?
# output 4.80

# input And for CCOC(=O)C(C)NP(=O)(OCC1(N=[N+]=[N-])OC(n2ccc(=O)[nH]c2=O)C(C)C1O)Oc1ccccc1 (mixture of isomers) ?
# output 4.79

# input And for CCOC(=O)[C@H](C)NP(=O)(OC[C@@]1(N=[N+]=[N-])O[C@@H](n2ccc(=O)[nH]c2=O)[C@@H](C)[C@@H]1O)Oc1ccccc1 (single isomer, unassigned) [Compound I-8] ?
# output 4.92

# input And for CCCC(CCC)COC(=O)C(C)NP(=O)(OCC1(N=[N+]=[N-])OC(n2ccc(=O)[nH]c2=O)C(C)C1O)Oc1ccc(Cl)cc1 (mixture of isomers) ?
# output 4.81

# input And for CCOC(=O)[C@H](C)NP(=O)(OC[C@@]1(N=[N+]=[N-])O[C@@H](n2ccc(=O)[nH]c2=O)[C@@H](C)[C@@H]1O)Oc1ccccc1 (single isomer, unassigned) [Compound I-17] ?
# output 4.76

# input And for CC(NP(=O)(OCC1(N=[N+]=[N-])OC(n2ccc(=O)[nH]c2=O)C(C)C1O)Oc1cccc2ccccc12)C(=O)OCc1ccccc1 (mixture of isomers) ?
# output 4.86

# input And for CCCC(CCC)COC(=O)C(C)NP(=O)(OCC1(N=[N+]=[N-])OC(n2ccc(=O)[nH]c2=O)C(C)C1O)Oc1ccccc1 (mixture of isomers) ?
# output 5.09

# input And for COCCOC(=O)C(C)NP(=O)(OCC1(N=[N+]=[N-])OC(n2ccc(=O)[nH]c2=O)C(C)C1O)Oc1ccccc1 (mixture of isomers) ?
# output 4.49
